- Tested on: MSTO clone 12 (CD26-positive malignant mesothelioma cell line)
- protocolSummary: WST-1 cytotoxicity assay, MSTO clone 12
- Format: cell-based
- setupConditions: MSTO clone12, CD26 (+); 48 hours; read-out: IC50
measuredProperty: IC50 (nM)

{"columns": ["molecule", "systemTested", "measuredProperty", "resultUnits", "reported"],
 "data": [
  ["CC(C)[C@]12O[C@H]1[C@@H]1O[C@@]13C1(C)CCC4=C(COC4=O)[C@@H]1C[C@@H]1O[C@@]13[C@@H]2O (stereo partly shown) [Triptolide]", "MSTO clone 12 (CD26-positive malignant mesothelioma cell line)", "IC50", "nM", 10]
]}
